Origin of the recorded values: patent US11098026B2

Each entry below lists one item and its recorded IC50 value.
Molecular target: human GPR91 receptor (Homo sapiens, UniProt Q9BXA5)
Construct: expressed in transfected cells; host or cells: CHO-K1 NFAT cells
Sequence (Q9BXA5 1-334): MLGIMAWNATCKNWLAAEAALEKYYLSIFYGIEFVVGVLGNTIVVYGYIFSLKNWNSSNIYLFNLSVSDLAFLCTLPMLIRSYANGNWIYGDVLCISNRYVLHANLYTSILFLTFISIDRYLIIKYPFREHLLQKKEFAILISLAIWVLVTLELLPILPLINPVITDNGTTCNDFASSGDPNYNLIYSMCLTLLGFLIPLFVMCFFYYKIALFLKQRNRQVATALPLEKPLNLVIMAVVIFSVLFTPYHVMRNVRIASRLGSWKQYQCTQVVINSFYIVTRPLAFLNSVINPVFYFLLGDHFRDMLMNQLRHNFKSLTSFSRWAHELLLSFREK
Experiment: Human GPR91 calcium mobilization assay
Format: cell-based
Details: CHO-K1 NFAT cells over expressing human GPR91 receptor; Fluo4 AM; agonist sodium succinate; flex station; read-out: hGPR91 IC50 (μM)*

Past entries and their recorded results:
Cc1nccc2cccc(Oc3ccc(Oc4cccc(CC(=O)O)c4)c(C(F)(F)F)c3)c12 [Compound A-41] : < 5 µM
FC(F)(F)c1cc(Oc2cccc3ccncc23)ccc1Oc1cccc(CCc2nnc[nH]2)c1 [Compound D-1] : > 10 µM

Which measured IC50 value corresponds to O=C(O)Cc1cccc(Oc2ncc(Oc3cccc4ccncc34)cc2C(F)(F)F)c1 [Compound A-36] ?
< 5 µM
